# system: Atrial natriuretic peptide receptor 1 (Homo sapiens) (UniProt P16066)
# Sequence (P16066 whole entry, looked up): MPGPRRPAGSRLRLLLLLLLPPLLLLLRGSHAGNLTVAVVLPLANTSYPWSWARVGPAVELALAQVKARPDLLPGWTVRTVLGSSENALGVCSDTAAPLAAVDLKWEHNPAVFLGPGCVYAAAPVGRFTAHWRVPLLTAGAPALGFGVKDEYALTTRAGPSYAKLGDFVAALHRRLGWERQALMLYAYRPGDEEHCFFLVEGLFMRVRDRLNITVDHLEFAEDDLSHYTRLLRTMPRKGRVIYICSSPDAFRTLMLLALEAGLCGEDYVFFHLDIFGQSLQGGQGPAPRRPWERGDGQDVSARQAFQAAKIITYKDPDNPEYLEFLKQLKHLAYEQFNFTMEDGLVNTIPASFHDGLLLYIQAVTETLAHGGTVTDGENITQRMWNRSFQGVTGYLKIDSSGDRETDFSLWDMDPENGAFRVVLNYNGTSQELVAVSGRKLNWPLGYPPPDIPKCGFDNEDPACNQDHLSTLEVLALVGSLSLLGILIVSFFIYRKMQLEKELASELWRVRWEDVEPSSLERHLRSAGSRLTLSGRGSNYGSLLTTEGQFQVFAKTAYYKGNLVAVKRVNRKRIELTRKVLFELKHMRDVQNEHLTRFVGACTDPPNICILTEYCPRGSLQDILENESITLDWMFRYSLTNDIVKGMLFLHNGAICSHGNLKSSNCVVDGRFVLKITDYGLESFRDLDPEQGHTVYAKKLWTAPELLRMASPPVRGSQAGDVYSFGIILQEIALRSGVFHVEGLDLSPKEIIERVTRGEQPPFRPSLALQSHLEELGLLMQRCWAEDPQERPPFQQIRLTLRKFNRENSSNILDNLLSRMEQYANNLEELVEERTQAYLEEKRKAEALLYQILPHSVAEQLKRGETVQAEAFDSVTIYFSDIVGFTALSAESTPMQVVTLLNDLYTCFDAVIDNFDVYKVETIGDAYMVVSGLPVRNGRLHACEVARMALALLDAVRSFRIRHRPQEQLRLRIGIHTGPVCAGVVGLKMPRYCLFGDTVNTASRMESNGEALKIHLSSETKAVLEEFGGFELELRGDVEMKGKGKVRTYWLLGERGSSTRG
# method: Natriuretic polypeptide receptor (hNpr1) antagonism - Pilot CMLD screen (AID 1347052);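 also: HEK293 cells with hNpr1 stimulated by hNppA peptide at 0.1 nM; cGMP level read as GloSensor luciferase luminescence after agonist stimulation; % is scaled to controls: 0 for no effect and ±100 for the full control effect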
# applied_conditions: HEK293 hNpr1 GloSensor cGMP luminescence, ANP-stimulated; series mostly up to 9.22 µM
# Excerpt: […] 7. […] GloSensor baseline pre-read luminescence measured using CCD-based camera (Viewlux). […] 10. […] GloSensor post-hNppA luminescence measured using CCD-based camera (Viewlux). […] 1. […] Cells counted with Invitrogen Countess (30,000,000 - 50,000,000 cells/flask). […]
Inconclusive results are not listed. Active and inactive are the calls of the source. Calls follow the shape of the full dose curve.
measure_name: outcome

molecule: COC(=O)CCCC1=CC2=CC(=O)C(C)(OC(=O)c3cccs3)C(=O)C2=CN1C1CCCC1 (stereo not drawn)
recorded_measurement: inactive
--
molecule: COC(=O)[C@]1(C=C2c3ccccc3C[C@H](OC)[C@@H]2C)[C@@H]2CC=C[C@@H]21
recorded_measurement: inactive
--
molecule: CC1=CC[C@@H](C)O[C@@]2(C1)C(=O)Nc1cccc(Br)c12
recorded_measurement: inactive
--
molecule: COC(=O)C1=C[C@@H]([C@@H](C)[C@H](OC)c2ccccc2Br)[C@@H]2OCC[C@H]12
recorded_measurement: inactive
--
molecule: COC(=O)C1=C(C(=O)OC)[C@@H]2N(CC=C(C)C)c3ccccc3[C@@]23CCC(=O)N(CCc2ccccn2)C3=N1
recorded_measurement: inactive
--
molecule: CCN1C(=O)N[C@@H](CCc2ccccc2)[C@H](C(C)=O)[C@H]1C
recorded_measurement: inactive
--
molecule: CCN1C(=O)[C@@H]2[C@H]3[C@H](O)[C@H](O)CC(=NOC[C@@H](C)[C@H](OCc4ccccc4)C(C)C)[C@@H]3CC[C@H]2C1=O
recorded_measurement: inactive
--
molecule: CC(C)=CCN1C(=O)[C@]2(O[C@H](COc3ccccc3)CC3=CCCC32)c2c(Br)cccc21 (stereo partly drawn)
recorded_measurement: inactive

* * *

# system: Nuclear receptor subfamily 1 group I member 3 (Homo sapiens)
# method: qHTS for Constitutive Androstane Receptor (CAR) Agonist screened against the NCATS CANVASS Library (AID 1347373);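 also: every well also contained 1.5 µM PK11195 alongside the test compound; 0% is about no effect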
# applied_conditions: HepG2-hCAR-CYP2B6 luciferase reporter, ONE-Glo luminescence; series mostly up to 46.1 µM
Records with an inconclusive call do not appear. Activity calls are given as the source filed them. The call rests on the fitted dose curve; in most records, active means well fitted activation curve with a large enough effect; inconclusive means small, poorly fitted or top-dose-only effect; inactive means no such curve, though single readings can be large or run the other way. Numbered stars: 1 amine (or outer) side, 2 acyl side, 3 side chain; on linkers, the order of the positions; unused ones are H or OH. Square brackets hold non-standard residues; d marks the D form. Peptide text beside a SMILES is read from it. ξ: configuration not given here. X4 = O=C(C1CC2(c3ccc(O)cc3)c3ccccc3NC2N1[*:1])[*:2]; ξW = NC(Cc1c[nH]c2ccccc12)C(=O)O; ξY = NC(Cc1ccc(O)cc1)C(=O)O

compound: COc1ccc2oc3c(OC)c(OC)c(OC)c(OC)c3c(=O)c2c1
activation: 7.45% [at 9.19 µM] (inactive)
--
compound: C[C@@]12CCC[C@@](C)(C(=O)O)[C@H]1CC[C@]13C[C@H]4C[C@H](O[C@@]4(C)C1)[C@H]32
activation: inactive
--
compound: CC(=O)NC[C@@H]1O[C@H](CC/C=C(C)/C(C)=C/C=O)[C@H](C)C[C@H]1O
activation: inactive
--
compound: CC[C@H](C)[C@H](NC(=O)C(Cc1ccc(O)cc1)NC(=O)C(Cc1c[nH]c2ccccc12)NC(=O)[C@H](C)N)C(=O)N1C(C(=O)NC(Cc2ccc(O)cc2)C(=O)O)CC2(c3ccc(O)cc3)c3ccccc3NC12 (stereo partly specified) (H-A[ξW][ξY]I[X4][ξY]-OH)
activation: inactive
--
compound: CCC[C@@H](C)/C=C(\C)[C@H](O)[C@H](C)/C=C/CC[C@@H](O)[C@H](C)[C@H](O)[C@H](C)[C@H](O)[C@H](C)[C@H]1O[C@H]([C@H](C)C(=O)O)CC[C@@H]1C
activation: inactive
--
compound: C=C1C[C@@]23C=CC(=O)[C@@](C)(CCC(=O)Nc4c(O)ccc(C(=O)O)c4O)C2C[C@@H]1C(O)C3 (stereo partly specified)
activation: inactive
